# Test system: zebrafish embryos
# Condition Notes: zebrafish embryos 72 hpf, 2 mg/mL
Each record here notes measured MAR (malformation rate).
The reply should be a number in % ^a, with the unit left off.

Solved cases (2 shown):
| Smiles Data | MAR (malformation rate) (% ^a) |
| --- | --- |
| COc1ccc(-n2c(-c3c4ccccc4nc4ccc(C)cc34)n[nH]c2=S)cc1 | 15 |
| COc1ccc2nc3ccccc3c(NC(=S)NNC(=O)c3ccccc3)c2c1 | 55 |

Now, please, on to the next compound.
What measured MAR (malformation rate) goes with `COc1ccc(C(=O)NNC(=S)Nc2c3ccccc3nc3ccc(OC)cc23)cc1` ? 50
